Biological target: Cytochrome P450 2C9 (Homo sapiens) (UniProt P11712)
Sequence (P11712 whole entry, looked up): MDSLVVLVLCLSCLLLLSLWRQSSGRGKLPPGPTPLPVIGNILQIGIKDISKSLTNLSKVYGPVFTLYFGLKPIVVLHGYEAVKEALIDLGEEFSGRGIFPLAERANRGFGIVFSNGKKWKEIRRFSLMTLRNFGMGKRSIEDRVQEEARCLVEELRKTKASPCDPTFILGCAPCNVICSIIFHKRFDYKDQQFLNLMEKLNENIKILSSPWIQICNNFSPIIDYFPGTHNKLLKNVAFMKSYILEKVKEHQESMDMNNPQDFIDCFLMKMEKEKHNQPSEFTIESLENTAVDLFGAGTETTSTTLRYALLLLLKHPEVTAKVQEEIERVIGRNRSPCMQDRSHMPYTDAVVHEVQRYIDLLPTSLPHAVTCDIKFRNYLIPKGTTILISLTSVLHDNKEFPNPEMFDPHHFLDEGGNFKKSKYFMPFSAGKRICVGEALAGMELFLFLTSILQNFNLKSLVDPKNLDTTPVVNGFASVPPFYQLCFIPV
Assay: Cytochrome panel assay with activity outcomes
Conditions: recombinant CYP, pro-luciferin dealkylation, luminescence, p450-cyp2c9; series mostly up to 57.1 µM
The campaign covered roughly 16,000 compounds. About 4,000 (25%) were called active. Roughly 26% stayed inconclusive and do not appear here. Calls follow the shape of the dose curve; as a rule, active = well fitted curve in the direction sought with a large enough effect; inconclusive = small, poorly fitted or top-dose-only effect, or effect the other way; inactive = no such curve, though single readings can be large or run the other way. Only a sample is shown.
Outcome codes: active, inactive

>>> class_name("CC/C(O)=C(\\C#N)c1nnc2n1CCCCC2")
"inactive"
>>> class_name("O=C(Nc1ccccc1C(=O)O)c1ccc2ccccc2n1")
"active"
>>> class_name("COc1ccc(/C=C(/C(=O)Nc2ccccc2C(=O)NC(C)C)c2ccccc2)cc1")
"active"
>>> class_name("O=C(NC1CCCCC1)C1CC=CCC1C(=O)OCC(Cl)=C(Cl)Cl (stereo unspecified)")
"active"
>>> class_name("CCCNc1[nH]c(=O)n(C)c(=O)c1N=O")
"inactive"
>>> class_name("CC(C)NC(=O)/C(=N\\O)c1ccccc1")
"inactive"

---

Biological target: Cytochrome P450 2C9 (Homo sapiens) (UniProt P11712)
Test: Cytochrome panel assay with activity outcomes
Settings: recombinant CYP, pro-luciferin dealkylation, luminescence, p450-cyp2c9; series mostly up to 57.1 µM
Screen size: about 16,000 compounds; about 4,000 (25%) were called active. Inconclusive results (about 26%) are left out. Calls follow the shape of the dose curve; as a rule, active = well fitted curve in the direction sought with a large enough effect; inconclusive = small, poorly fitted or top-dose-only effect, or effect the other way; inactive = no such curve, though single readings can be large or run the other way. These entries were drawn from the full list.
Outcome codes: class 1 = active, class 0 = inactive

>>> class_name("CC(C)CN1CC[C@@]2(CCCN(C(=O)c3csnn3)C2)C1")
"class 0"
>>> class_name("COc1ccc(CNC(=O)/C=C/c2ccc(OCCCF)cc2)cc1")
"class 0"
>>> class_name("CC[C@@H]1OC(=O)[C@H](C)[C@H](O[C@@H]2C[C@](C)(OC)[C@H](O)[C@H](C)O2)[C@H](C)[C@H](O[C@@H]2O[C@@H](C)C[C@@H](N(C)C)[C@@H]2O)[C@](C)(O)C[C@H](C)[C@@H]2N[C@H](COCCOC)O[C@H]([C@@H]2C)[C@]1(C)O")
"class 0"
>>> class_name("Cc1ccc(C(c2nnnn2C2CCCC2)N2CCN3CCCC3C2)cc1 (stereo unspecified)")
"class 0"
>>> class_name("O=C(c1cnccn1)N1CCC2(CC1)CCN(c1ncccn1)CC2")
"class 0"
>>> class_name("CCC(C)Nc1nc(OCC(F)(F)F)nc(OCC(F)(F)F)n1 (stereo unspecified)")
"class 0"
>>> class_name("Clc1ccc(C(c2nnnn2C2CCCC2)N2CCN(Cc3ccncc3)CC2)cc1 (stereo unspecified)")
"class 1"
>>> class_name("CC(=O)N1CCC2(CC1)CN(c1ccccn1)C2")
"class 0"
>>> class_name("O=C(c1cnccn1)N1CCC2(CC1)CCN(c1ccccn1)CC2")
"class 0"
>>> class_name("COC(=O)N1CCC2(CC1)CCN(c1ccccn1)CC2")
"class 0"
>>> class_name("Cc1noc(NS(=O)(=O)c2cccc3c(N(C)C)cccc23)c1C")
"class 1"
>>> class_name("Cn1cccc1C(=O)N1CCC2(CC1)CCN(c1ncccn1)CC2")
"class 0"
>>> class_name("Cn1c(C(F)(F)F)nc2c(=O)oc3ccccc3c21")
"class 0"
>>> class_name("CS(=O)(=O)N1CCC2(CCCN(C(=O)Nc3cccc(C#N)c3)C2)CC1")
"class 0"
>>> class_name("CN1CCCN([C@@H](c2ccccc2)c2ccc(Cl)cc2)CC1")
"class 0"
>>> class_name("Cc1cc(C)c(S(C)(=O)=O)c(Oc2ccc(C(C)(C)C)cc2)n1")
"class 1"
>>> class_name("Cc1nn2c3c(cnc2c1-c1ccccc1)C(=O)CC(c1ccccc1)C3 (stereo unspecified)")
"class 1"
>>> class_name("CCc1nc2cc(CC(=O)O)ccc2o1")
"class 0"
>>> class_name("CN1CCN(c2ncc3ncc(=O)n(C[C@H]4CCCO4)c3n2)CC1")
"class 0"
>>> class_name("O=C(O)c1cc2ccccc2c(Cc2cc3ccccc3c(C(=O)O)c2O)c1O (tested in a mixture with another compound)")
"class 0"
>>> class_name("Cc1n[nH]c(=O)[nH]c1=O")
"class 0"
